Reference source: patent EP4772497A1

# METHOD: Solubility assay of crystalline form A in 17 solvents
# Type: physicochemical
# APPLIED_CONDITIONS: organic solvent or mixture, thermodynamic from solid; Acetonitrile, 25°C
ENDPOINT_NAME: solubility

Recall and state the measured solubility for C[C@@H]1CC[C@H](C(=O)O)CN1C(=O)Cc1ccc(F)cc1Cl [Crystalline form A] .
41 to 50 mg/mL

====

# METHOD: Approximate solubility of crystalline form C in dissolution media by visual observation
# Type: physicochemical
# APPLIED_CONDITIONS: aqueous buffer, thermodynamic from solid; ES2: pH 4.5 acetate buffer (50mM); 37°C per table caption (method: 25°C)
ENDPOINT_NAME: solubility

Using known records, supply solubility for C[C@@H]1CC[C@H](C(=O)O)CN1C(=O)Cc1ccc(F)cc1Cl [Crystalline form C]
900 to 1000 µg/mL

====

# METHOD: Solubility assay of crystalline form A in 17 solvents
# Assay type: physicochemical
# APPLIED_CONDITIONS: organic solvent or mixture, thermodynamic from solid; Methanol, 25°C
# Experimental: For solubility assay, about 5 mg or about 10 mg of crystalline form A was weighed into a 2 mL glass vial. A 20 µL aliquot of each of the 17 solvents listed in Table 8 was added to the vial to dissolve the drug substance. For about 5 mg of crystalline form A, the drug substance was dissolved at 25°C; and for about 10 mg of crystalline form A, the drug substance was dissolved at 50°C. […]
ENDPOINT_NAME: solubility

Complete the entry with solubility for C[C@@H]1CC[C@H](C(=O)O)CN1C(=O)Cc1ccc(F)cc1Cl [Crystalline form A]
> 250 mg/mL

====

# METHOD: Solubility assay of crystalline form A in 17 solvents
# Format: physicochemical
# APPLIED_CONDITIONS: organic solvent or mixture, thermodynamic from solid; Toluene, 50°C
ENDPOINT_NAME: solubility

Give solubility for the following compound: C[C@@H]1CC[C@H](C(=O)O)CN1C(=O)Cc1ccc(F)cc1Cl [Crystalline form A]
50 to 100 mg/mL

====

# METHOD: Solubility assay of crystalline form A in 17 solvents
# Type: physicochemical
# APPLIED_CONDITIONS: organic solvent or mixture, thermodynamic from solid; 1,4-Dioxane, 25°C
ENDPOINT_NAME: solubility

Give a short answer stating reported solubility for C[C@@H]1CC[C@H](C(=O)O)CN1C(=O)Cc1ccc(F)cc1Cl [Crystalline form A] .
> 250 mg/mL

====

# METHOD: Solubility assay of crystalline form A in 17 solvents
# Type: physicochemical
# APPLIED_CONDITIONS: organic solvent or mixture, thermodynamic from solid; Methyl ethyl ketone, 25°C
ENDPOINT_NAME: solubility

Consider the compound C[C@@H]1CC[C@H](C(=O)O)CN1C(=O)Cc1ccc(F)cc1Cl [Crystalline form A] . State its measured solubility.
83 to 125 mg/mL

====

# METHOD: Solubility assay of crystalline form A in 17 solvents
# Format: physicochemical
# APPLIED_CONDITIONS: thermodynamic from solid; Water, 25°C
ENDPOINT_NAME: solubility

For the molecule C[C@@H]1CC[C@H](C(=O)O)CN1C(=O)Cc1ccc(F)cc1Cl [Crystalline form A] , give its reported solubility.
< 5000 µg/mL

====

# METHOD: Solubility assay of crystalline form A in 17 solvents
# Format: physicochemical
# APPLIED_CONDITIONS: organic solvent or mixture, thermodynamic from solid; Acetone, 25°C
ENDPOINT_NAME: solubility

Give the reported solubility for this molecule. C[C@@H]1CC[C@H](C(=O)O)CN1C(=O)Cc1ccc(F)cc1Cl [Crystalline form A]
125 to 250 mg/mL

====

# METHOD: Approximate solubility of crystalline form C in dissolution media by visual observation
# Type: physicochemical
# APPLIED_CONDITIONS: thermodynamic from solid; ES6: FeSSIF-v1, pH 5.0; 37°C per table caption (method: 25°C)
ENDPOINT_NAME: solubility

Please give measured solubility of the following entry: C[C@@H]1CC[C@H](C(=O)O)CN1C(=O)Cc1ccc(F)cc1Cl [Crystalline form C]
1.8 to 2 mg/mL

====

# METHOD: Approximate solubility of crystalline form C in dissolution media by visual observation
# Type: physicochemical
# APPLIED_CONDITIONS: thermodynamic from solid; ES5: FaSSIF-v1, pH 6.5; 37°C per table caption (method: 25°C)
ENDPOINT_NAME: solubility

Output measured solubility for this item: C[C@@H]1CC[C@H](C(=O)O)CN1C(=O)Cc1ccc(F)cc1Cl [Crystalline form C]
1800 to 2000 µg/mL

====

# METHOD: Solubility assay of crystalline form A in 17 solvents
# Assay type: physicochemical
# APPLIED_CONDITIONS: organic solvent or mixture, thermodynamic from solid; Tetrahydrofuran, 50°C
ENDPOINT_NAME: solubility

Please report the measured solubility for C[C@@H]1CC[C@H](C(=O)O)CN1C(=O)Cc1ccc(F)cc1Cl [Crystalline form A]
> 500 mg/mL

====

# METHOD: Solubility assay of crystalline form A in 17 solvents
# Format: physicochemical
# APPLIED_CONDITIONS: organic solvent or mixture, thermodynamic from solid; DMF, 50°C
ENDPOINT_NAME: solubility

Please give the documented solubility of C[C@@H]1CC[C@H](C(=O)O)CN1C(=O)Cc1ccc(F)cc1Cl [Crystalline form A]
> 500 mg/mL

====

# METHOD: Solubility assay of crystalline form A in 17 solvents
# Assay type: physicochemical
# APPLIED_CONDITIONS: organic solvent or mixture, thermodynamic from solid; 1,4-Dioxane, 50°C
ENDPOINT_NAME: solubility

Annotate the compound C[C@@H]1CC[C@H](C(=O)O)CN1C(=O)Cc1ccc(F)cc1Cl [Crystalline form A] with its measured solubility.
> 500 mg/mL

====

# METHOD: Solubility assay of crystalline form A in 17 solvents
# Assay type: physicochemical
# APPLIED_CONDITIONS: organic solvent or mixture, thermodynamic from solid; Ethanol, 50°C
ENDPOINT_NAME: solubility

Give the reported value of solubility for this record: C[C@@H]1CC[C@H](C(=O)O)CN1C(=O)Cc1ccc(F)cc1Cl [Crystalline form A]
> 500 mg/mL

====

# METHOD: Solubility assay of crystalline form A in 17 solvents
# Assay type: physicochemical
# APPLIED_CONDITIONS: thermodynamic from solid; Water, 50°C
ENDPOINT_NAME: solubility

Query solubility for C[C@@H]1CC[C@H](C(=O)O)CN1C(=O)Cc1ccc(F)cc1Cl [Crystalline form A]
< 10000 µg/mL

====

# METHOD: Solubility assay of crystalline form A in 17 solvents
# Type: physicochemical
# APPLIED_CONDITIONS: organic solvent or mixture, thermodynamic from solid; 2-MeTHF, 50°C
ENDPOINT_NAME: solubility

Give me measured solubility, please, for this molecule: C[C@@H]1CC[C@H](C(=O)O)CN1C(=O)Cc1ccc(F)cc1Cl [Crystalline form A]
> 500 mg/mL

====

# METHOD: Solubility assay of crystalline form A in 17 solvents
# Assay type: physicochemical
# APPLIED_CONDITIONS: organic solvent or mixture, thermodynamic from solid; Toluene, 25°C
ENDPOINT_NAME: solubility

Indicate its recorded solubility; the compound in question is C[C@@H]1CC[C@H](C(=O)O)CN1C(=O)Cc1ccc(F)cc1Cl [Crystalline form A]
17 to 25 mg/mL

====

# METHOD: Parallel artificial membrane permeability assay (PAMPA) for BBB permeability
# Type: in vitro ADME
# APPLIED_CONDITIONS: PAMPA, pH 7.2, BBB lipid membrane, PBS (pH 7.2); read-out: PAMPA Pe
ENDPOINT_NAME: Papp at 6 h, 10 µM (×10⁻⁶ cm/s)
Quick reminder: number only, in ×10⁻⁶ cm/s, skip the unit.

In one line, give reported Papp at 6 h, 10 µM of the entry C[C@@H]1CC[C@H](C(=O)O)CN1C(=O)Cc1ccc(F)cc1Cl [Crystalline form A] .
0.00925

====

# METHOD: Approximate solubility of crystalline form C in dissolution media by visual observation
# Type: physicochemical
# APPLIED_CONDITIONS: aqueous buffer, thermodynamic from solid; ES3: pH 6.8 phosphate buffer (50mM); 37°C per table caption (method: 25°C)
ENDPOINT_NAME: solubility

Return the recorded solubility value; entry: C[C@@H]1CC[C@H](C(=O)O)CN1C(=O)Cc1ccc(F)cc1Cl [Crystalline form C]
1800 to 2000 µg/mL
